# SYSTEM TESTED: TRPML2 (Homo sapiens)
# Construct: expressed in transfected cells
# Sequence (Q8IZK6 whole entry): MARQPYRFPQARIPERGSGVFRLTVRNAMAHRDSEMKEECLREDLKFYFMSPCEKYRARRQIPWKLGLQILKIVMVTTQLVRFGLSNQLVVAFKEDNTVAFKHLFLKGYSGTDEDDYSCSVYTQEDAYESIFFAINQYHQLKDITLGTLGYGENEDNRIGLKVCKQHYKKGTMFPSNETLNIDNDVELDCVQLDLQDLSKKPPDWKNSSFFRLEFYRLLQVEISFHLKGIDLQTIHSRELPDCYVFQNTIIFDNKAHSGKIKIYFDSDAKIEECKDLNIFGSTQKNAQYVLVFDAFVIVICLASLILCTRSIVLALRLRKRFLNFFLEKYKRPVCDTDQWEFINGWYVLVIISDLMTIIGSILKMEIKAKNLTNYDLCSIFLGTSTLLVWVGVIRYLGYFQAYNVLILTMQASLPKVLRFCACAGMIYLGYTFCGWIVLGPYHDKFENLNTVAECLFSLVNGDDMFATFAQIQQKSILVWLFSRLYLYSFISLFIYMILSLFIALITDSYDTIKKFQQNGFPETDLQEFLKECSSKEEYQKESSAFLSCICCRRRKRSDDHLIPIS
# PROCEDURE DETAILS: Fluorescent TRPML2 assay (performed as for TRPML1, substituting the TRPML2 subtype)
# Format: cell-based
pEC50: −log10 of the molar value.

MOLECULE: C[C@@H]1CN(c2ncnc3c2c(OC(F)(F)F)cn3-c2cc(C#N)ccn2)[C@@H](C)CN1C(=O)OC(C)(C)C [Compound 524]
SYSTEM TESTED: TRPML2 (Homo sapiens)
pEC50: > 7.00
//
MOLECULE: C[C@@H]1CN(c2ncnc3c2c(CC(F)(F)F)cn3-c2cc(C#N)ncn2)[C@@H](C)CN1C(=O)OC(C)(C)C [Compound 618]
SYSTEM TESTED: TRPML2 (Homo sapiens)
pEC50: 6.30 to 7.00
//
MOLECULE: C[C@H]1CN(C(=O)OC(C)(C)C)CCN1c1ncnc2c1c(C(F)F)cn2-c1cc(C#N)ccn1 [Compound 514]
SYSTEM TESTED: TRPML2 (Homo sapiens)
pEC50: > 7.00
//
MOLECULE: [2H]C([2H])([2H])[C@@H]1CN(c2ncnc3c2c(C2CC2)cn3-c2cc(C#N)ccn2)[C@@H](C)CN1C(=O)OC(C)(C)C [Compound 711]
SYSTEM TESTED: TRPML2 (Homo sapiens)
pEC50: 5.70 to 6.30
//
MOLECULE: Cc1cn(-c2ccccn2)c2ncnc(N3CCN(C(=O)OC(C)(C)C)C[C@@H]3C)c12 [Compound 690]
SYSTEM TESTED: TRPML2 (Homo sapiens)
pEC50: 5.70 to 6.30
//
MOLECULE: C[C@H]1CN(C(=O)OC(C)(C)C)CCN1c1ncnc2c1c(C1CCC1)cn2-c1cccc(F)c1 [Compound 641]
SYSTEM TESTED: TRPML2 (Homo sapiens)
pEC50: > 7.00
//
MOLECULE: C[C@@H]1CN(c2ncnc3c2c(C2CC2)cn3-c2cccc(F)c2)[C@@H](C)CN1C(=O)OC1(C)CC1 [Compound 658]
SYSTEM TESTED: TRPML2 (Homo sapiens)
pEC50: 5.70 to 6.30
//
MOLECULE: C[C@@H]1CN(c2ncnc3c2c(C(F)(F)F)cn3-c2cc(Cl)ccn2)[C@@H](C)CN1C(=O)OC(C)(C)C [Compound 506]
SYSTEM TESTED: TRPML2 (Homo sapiens)
pEC50: 5.70 to 6.30
//
MOLECULE: C[C@@H]1CN(c2ncnc3c2c(CC(F)(F)F)cn3-c2nccc(C#N)n2)[C@@H](C)CN1C(=O)OC(C)(C)C [Compound 617]
SYSTEM TESTED: TRPML2 (Homo sapiens)
pEC50: < 5.70
//
MOLECULE: C[C@@H]1CN(c2ncnc3c2c(C(F)(F)F)cn3-c2cc(F)ccn2)[C@@H](C)CN1C(=O)OC1(C)CC1 [Compound 659]
SYSTEM TESTED: TRPML2 (Homo sapiens)
pEC50: < 5.70
//
MOLECULE: C[C@@H]1CN(c2ncnc3c2c(C2CCC2)cn3-c2cccc(Cl)c2)[C@@H](C)CN1C(=O)OC(C)(C)C [Compound 647]
SYSTEM TESTED: TRPML2 (Homo sapiens)
pEC50: 5.70 to 6.30
//
MOLECULE: C[C@H]1CN(C(=O)OC(C)(C)C)CCN1c1ncnc2c1c(C1CC1)cn2[C@H]1CCC[C@@H](C#N)C1 [Compound 527]
SYSTEM TESTED: TRPML2 (Homo sapiens)
pEC50: < 5.70
//
MOLECULE: C[C@@H]1CN(c2ncnc3c2c(C2CC2)cn3-c2cc(F)cc(F)c2)[C@@H](C)CN1C(=O)OC1(C)CC1 [Compound 655]
SYSTEM TESTED: TRPML2 (Homo sapiens)
pEC50: > 7.00
//
MOLECULE: Cc1cc(C#N)cc(-n2cc(C(F)(F)F)c3c(N4C[C@@H](C)N(C(=O)OC(C)(C)C)C[C@@H]4C)ncnc32)n1 [Compound 517]
SYSTEM TESTED: TRPML2 (Homo sapiens)
pEC50: 6.30 to 7.00
//
MOLECULE: C[C@@H]1CN(c2ncnc3c2c(C2CC2)cn3-c2cccc(F)c2)CCN1C(=O)OC(C)(C)C [Compound 656]
SYSTEM TESTED: TRPML2 (Homo sapiens)
pEC50: 6.30 to 7.00
//
MOLECULE: Cc1cn(-c2cccc(F)c2)c2ncnc(N3C[C@@H](C)N(C(=O)OC(C)(C)C)C[C@@H]3C)c12 [Compound 666]
SYSTEM TESTED: TRPML2 (Homo sapiens)
pEC50: 6.30 to 7.00
//
MOLECULE: C[C@@H]1CN(c2ncnc3c2c(C(F)(F)F)cn3-c2cccc(F)c2)[C@@H](C)CN1C(=O)OC(C)(C)C [Compound 496]
SYSTEM TESTED: TRPML2 (Homo sapiens)
pEC50: 6.30 to 7.00
//
MOLECULE: C[C@@H]1CN(c2ncnc3c2c(C(F)F)cn3C2CCCC(C#N)C2)[C@@H](C)CN1C(=O)OC(C)(C)C (stereo partly drawn) [Compound 633]
SYSTEM TESTED: TRPML2 (Homo sapiens)
pEC50: < 5.70
//
MOLECULE: C[C@@H]1CN(c2ncnc3c2c(C(F)(F)F)cn3-c2cc(C#N)ccn2)[C@@H](C)CN1C(=O)OC1(C)CC1 [Compound 519]
SYSTEM TESTED: TRPML2 (Homo sapiens)
pEC50: 6.30 to 7.00
//
MOLECULE: C[C@@H]1CN(c2ncnc3c2c(C(F)(F)F)cn3[C@@H]2CCCC(F)(F)C2)[C@@H](C)CN1C(=O)OC(C)(C)C (single isomer, unassigned) [Compound 714]
SYSTEM TESTED: TRPML2 (Homo sapiens)
pEC50: 5.70 to 6.30
//
MOLECULE: [2H]C([2H])([2H])C(OC(=O)N1C[C@H](C)N(c2ncnc3c2c(C(F)(F)F)cn3-c2cc(C#N)ccn2)C[C@@H]1C)(C([2H])([2H])[2H])C([2H])([2H])[2H] [Compound 603]
SYSTEM TESTED: TRPML2 (Homo sapiens)
pEC50: 5.70 to 6.30
//
MOLECULE: Cc1cn(-c2ccc(F)cc2)c2ncnc(N3C[C@@H](C)N(C(=O)OC(C)(C)C)C[C@@H]3C)c12 [Compound 676]
SYSTEM TESTED: TRPML2 (Homo sapiens)
pEC50: 6.30 to 7.00
//
MOLECULE: Cc1cn(-c2cc(C(F)(F)F)ccn2)c2ncnc(N3C[C@@H](C)N(C(=O)OC(C)(C)C)C[C@@H]3C)c12 [Compound 537]
SYSTEM TESTED: TRPML2 (Homo sapiens)
pEC50: > 7.00
//
MOLECULE: C[C@@H]1CN(c2ncnc3c2c(C(F)F)cn3-c2cc(C#N)ccn2)[C@@H](C)CN1C(=O)OC1(C)CCC1 [Compound 605]
SYSTEM TESTED: TRPML2 (Homo sapiens)
pEC50: 6.30 to 7.00
//
MOLECULE: Cc1cn(-c2cncc(C#N)c2)c2ncnc(N3C[C@@H](C)N(C(=O)OC(C)(C)C)C[C@@H]3C)c12 [Compound 675]
SYSTEM TESTED: TRPML2 (Homo sapiens)
pEC50: 6.30 to 7.00
//
MOLECULE: C[C@@H]1CN(c2ncnc3c2c(C(F)F)cn3-c2cccc(F)c2)[C@@H](C)CN1C(=O)OC(C)(C)C [Compound 695]
SYSTEM TESTED: TRPML2 (Homo sapiens)
pEC50: 6.30 to 7.00
//
MOLECULE: Cc1cn(-c2cc(C(F)(F)F)ccn2)c2ncnc(N3CCN(C(=O)OC(C)(C)C)C[C@@H]3C)c12 [Compound 682]
SYSTEM TESTED: TRPML2 (Homo sapiens)
pEC50: > 7.00
